Cytochrome P450 1A2 (Homo sapiens) data, read-out AC50;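 further: PubChem cytochrome P450 panel assay, CYP1A2 panel member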
Sequence (P05177 whole entry): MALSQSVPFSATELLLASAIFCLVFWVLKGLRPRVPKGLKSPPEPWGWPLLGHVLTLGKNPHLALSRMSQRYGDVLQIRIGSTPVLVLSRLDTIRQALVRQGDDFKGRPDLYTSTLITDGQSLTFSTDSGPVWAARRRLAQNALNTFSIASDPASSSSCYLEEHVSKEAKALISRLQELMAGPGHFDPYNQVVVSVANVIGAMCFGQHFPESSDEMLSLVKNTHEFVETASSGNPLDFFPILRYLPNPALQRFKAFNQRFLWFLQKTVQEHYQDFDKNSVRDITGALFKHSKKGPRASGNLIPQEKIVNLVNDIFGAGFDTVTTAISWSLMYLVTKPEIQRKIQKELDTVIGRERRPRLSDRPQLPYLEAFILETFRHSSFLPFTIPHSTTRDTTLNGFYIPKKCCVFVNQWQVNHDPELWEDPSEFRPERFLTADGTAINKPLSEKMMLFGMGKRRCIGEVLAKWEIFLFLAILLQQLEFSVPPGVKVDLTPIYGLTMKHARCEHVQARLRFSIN

# compound, AC50
data = [
    ("O=C(NCCO)c1cc2c(s1)CCC2", "14.1 µM (inconclusive)"),
    ("Cc1cccc2c(SCC(=O)NCC3CCCO3)nc(-c3ccc(F)cc3)nc12 (stereo not drawn)", "0.447 µM (inconclusive)"),
    ("CC(C)Cn1cnc2c(SCc3ccc(Cl)cc3Cl)nc(N)nc21", "1.26 µM (inconclusive)"),
    ("CN(C)C(=O)c1ccc(-c2ccc3ncnc(NCCN4CCOCC4)c3c2)cc1", "25.1 µM (inconclusive)"),
    ("Cc1ccc(-n2ncc(N(C)C)c(Cl)c2=O)cc1", "14.1 µM (inconclusive)"),
    ("CC(C)C[C@H]1C(=O)N2CCC[C@@H]2[C@@]2(O)O[C@](NC(=O)[C@@H]3C=C4c5cccc6[nH]cc(c56)C[C@@H]4N(C)C3)(C(C)C)C(=O)N12", "12.6 µM (inconclusive)"),
    ("CNCCC=C1c2ccccc2C=Cc2ccccc21", "6.31 µM (inconclusive)"),
    ("CN1CCN2c3ncccc3Cc3ccccc3C2C1 (stereo not drawn)", "20 µM (inconclusive)"),
]
